Please provide measured log10 IC50 for the entries that follow.
Molecular target: ErbB2 with Exon 20 YVMA insertion (HER2-YVMA) (Homo sapiens (Human), UniProt P04626, INS775YVMA)
Sequence (P04626 other isoform, or with tags, fused parts or gaps ins YVMA behind 775): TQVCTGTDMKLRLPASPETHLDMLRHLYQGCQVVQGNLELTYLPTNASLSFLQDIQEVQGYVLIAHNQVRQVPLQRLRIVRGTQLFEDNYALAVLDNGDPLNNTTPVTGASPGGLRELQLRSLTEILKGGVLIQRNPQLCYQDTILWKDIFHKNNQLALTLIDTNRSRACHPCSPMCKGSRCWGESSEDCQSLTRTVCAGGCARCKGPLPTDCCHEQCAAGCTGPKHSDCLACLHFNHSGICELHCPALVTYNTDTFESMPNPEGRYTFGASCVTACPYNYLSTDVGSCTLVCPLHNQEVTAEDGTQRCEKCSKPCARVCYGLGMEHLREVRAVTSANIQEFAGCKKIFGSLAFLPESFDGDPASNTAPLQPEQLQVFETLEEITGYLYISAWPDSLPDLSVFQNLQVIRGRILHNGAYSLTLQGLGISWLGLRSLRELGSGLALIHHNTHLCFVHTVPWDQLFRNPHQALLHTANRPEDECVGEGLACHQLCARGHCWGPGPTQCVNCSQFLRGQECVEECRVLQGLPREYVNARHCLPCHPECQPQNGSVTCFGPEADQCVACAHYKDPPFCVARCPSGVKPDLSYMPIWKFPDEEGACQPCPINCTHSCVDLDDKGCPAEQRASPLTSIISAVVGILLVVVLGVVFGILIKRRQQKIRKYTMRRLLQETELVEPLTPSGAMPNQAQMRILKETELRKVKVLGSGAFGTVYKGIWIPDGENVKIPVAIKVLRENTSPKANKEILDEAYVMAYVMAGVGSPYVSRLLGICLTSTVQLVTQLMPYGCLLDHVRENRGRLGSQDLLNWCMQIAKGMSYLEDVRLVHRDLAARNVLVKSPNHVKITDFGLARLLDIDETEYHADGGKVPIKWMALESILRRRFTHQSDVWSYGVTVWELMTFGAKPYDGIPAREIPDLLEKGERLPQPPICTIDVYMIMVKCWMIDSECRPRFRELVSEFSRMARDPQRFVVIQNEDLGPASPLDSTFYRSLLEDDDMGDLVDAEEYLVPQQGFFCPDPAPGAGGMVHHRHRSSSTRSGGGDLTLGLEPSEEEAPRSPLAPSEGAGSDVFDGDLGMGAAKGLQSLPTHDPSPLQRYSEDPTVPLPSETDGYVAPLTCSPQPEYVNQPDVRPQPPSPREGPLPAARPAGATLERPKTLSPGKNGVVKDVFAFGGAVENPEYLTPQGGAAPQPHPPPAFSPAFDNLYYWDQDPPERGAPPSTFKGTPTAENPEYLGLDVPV
Assay: Cellular phosphorylation assay, constitutive ErbB2 phosphorylation (Y1196) in engineered NIH 3T3 cells, Assay 4
Procedure: Serially diluted compounds were added to the plates for 1 hour at 37° C./5% CO2. EGFR WT cells were stimulated with 100 ng/ml rEGF for an additional 10 minutes at 37° C./5% CO2. After compound incubation, medium was removed from the cells, which were then fixed in 3.7% formaldehyde in PBS at room temperature for 20 minutes. […] Cells were then washed and analyzed for fluorescence at both wavelengths using the Odyssey Infrared Imaging System (LI-COR Biosciences). […]
Reminder: these figures are log10 of reported IC50, in nM before transformation.

Request: Which log10 IC50 value is on record for Cc1cc(Nc2ncnc3cnc(N4CC(OC(F)F)C4)nc23)ccc1Oc1ccc2c(c1)ncn2C [Example 244] ?
Result: 1.96

Request: Reported log10 IC50, molecule Cc1c(Oc2ccn3ncnc3c2)ccc(Nc2ncnc3cnc(N(C)CC(C)(C)O)nc23)c1F [Example 306] : ____
Result: 3.00

Request: # log10 IC50 lookup, item CC1(O)CN(c2ncc3ncnc(Nc4ccc(Oc5ccn6ncnc6c5)c(Cl)c4)c3n2)C1 [Example 324]
Result: 2.09

Request: Sample Cc1cc(Nc2ncnc3cnc(N4CCC(C)(O)CC4)nc23)ccc1Oc1ccn2ncnc2c1 [Example 120] — what was its log10 IC50?
Result: 1.69

Request: Requested field: log10 IC50. Item: OC1(CNc2ncc3ncnc(Nc4ccc(Oc5ccn6ncnc6c5)c(Cl)c4)c3n2)COC1 [Example 326]
Result: 1.51

Request: # input molecule: Clc1cc(Nc2ncnc3cnc(N4CC5CCC(C4)O5)nc23)ccc1Oc1ccn2ncnc2c1 [Example 383] ; wanted: its log10 IC50
Result: 3.62

Request: Give the measured log10 IC50 of Cc1cc(Nc2ncnc3cnc(N(C)C)nc23)ccc1Oc1ccc2c(c1)ncn2C [Example 3, 2,2,2-trifluoroacetate] .
Result: 1.63

Request: Sample Cc1cc(Nc2ncnc3cnc(N4CC[C@@H]4C(C)(C)O)nc23)ccc1Oc1ccn2ncnc2c1 [Example 423] — what was its log10 IC50?
Result: 3.29
